assay: inhibitors of TNFa-induced NFkB p65 translocation, primary screen, imaging, HUVEC, MLSMR starter and 10KST1 sets (AID 438); settings: HUVEC TNFa-induced p65 nuclear translocation; measured here: nuclei count (cytotoxicity indicator), at 2.08 µM;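 also: compound added about 3h40 before a 20 min TNFalpha stimulation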
Where a SMILES comes first, the peptide text is derived from it. The star is where a group is joined. Boc = CC(C)(C)OC(=O)*
test.readout: cell count
// response body must contain only the number

Lookup: Given the entry N#Cc1c2n(c(=O)[nH]c1=O)CCCCC2 , report its measured cell count.
Found: 270

Lookup: Given the entry COc1ccc(CCNC(=O)C2CCN(C(=O)N(C)C)CC2)cc1OC , report its measured cell count.
Found: 618

Lookup: Given the entry CCOC(=O)c1ccc(NS(=O)(=O)c2ccc3c(c2)CCCN3C(C)=O)cc1 , report its measured cell count.
Found: 684

Lookup: Given the entry CC(=O)c1cccc(NC(=O)N2CCCc3ccccc32)c1 , report its measured cell count.
Found: 334

Lookup: Given the entry O=C(CCCCn1c(=O)c2ccccc2n(Cc2ccc(Cl)cc2)c1=O)NCc1ccco1 , report its measured cell count.
Found: 613

Lookup: Given the entry CC(C)CC(NC(=O)OC(C)(C)C)C(=O)NC(C(=O)N1CCCC1C(N)=O)C(C)C (stereo not drawn) (Boc-Leu-Val-Pro-NH2; configuration not given here) , report its measured cell count.
Found: 662

Lookup: Given the entry Cc1nn(C)cc1NC(=O)CCSc1nc(-c2ccco2)cc(C(F)(F)F)n1 , report its measured cell count.
Found: 452

Lookup: Given the entry COc1ccc(C2CC(c3ccc(OC)cc3)n3nc(N)nc3N2)cc1 (configuration not stated) , report its measured cell count.
Found: 595

Lookup: Given the entry CC(C)CCN1CC(C(=O)NCc2ccccc2)CC1=O (configuration not stated) , report its measured cell count.
Found: 538

Lookup: Given the entry COc1cccc(N2CCN(Cc3nc(N)nc(Nc4ccccc4)n3)CC2)c1 , report its measured cell count.
Found: 463

Lookup: Given the entry O=C(CSc1nc2c(c(=O)n1-c1ccc(F)cc1)SCC2)NCC1CCCO1 (configuration not stated) , report its measured cell count.
Found: 256

Lookup: Given the entry CCCCN1C(=O)C2C(C(=O)Nc3cccc(OC)c3)C3C=CC2(O3)C1C(=O)NC1CCCCC1C (configuration not stated) , report its measured cell count.
Found: 423

Lookup: Given the entry O=C(c1ncn[nH]1)N1CCN(c2nc(-c3ccccc3)cs2)CC1 , report its measured cell count.
Found: 397

Lookup: Given the entry Cc1cccc(Cc2c(C)nc3nc(SCC(=O)NCc4ccco4)nn3c2C)c1 , report its measured cell count.
Found: 389

Lookup: Given the entry CCCOC(=O)c1[nH]c2c(c1C)C(=O)CC(c1ccc(OC)c(OC)c1)C2 (configuration not stated) , report its measured cell count.
Found: 235

Lookup: Given the entry Cn1c(C(=O)NCCCN2CCCCCC2)cc2c(=O)n(C)c3ccccc3c21 , report its measured cell count.
Found: 653

Lookup: Given the entry N#Cc1cc2ccc(N3CCOCC3)cc2cc1C#N , report its measured cell count.
Found: 421

Lookup: Given the entry CCOC(=O)c1cccc(NC2c3ccccc3C(=O)N2Cc2ccco2)c1 (configuration not stated) , report its measured cell count.
Found: 700

Lookup: Given the entry CCOC(=O)CSc1nc2c(c(-c3ccc(C)o3)c1C#N)CCCC2 , report its measured cell count.
Found: 430

Lookup: Given the entry CCN(C1CCCCC1)S(=O)(=O)c1ccc(S(=O)(=O)N2CCN(CCC#N)CC2)cc1 , report its measured cell count.
Found: 870

Lookup: Given the entry COc1ccc(C2C(C#N)=C(N)OC3=C2C(=O)CC(C)C3)c(OC)c1OC (configuration not stated) , report its measured cell count.
Found: 349

Lookup: Given the entry COC(=O)C1=C(C)NC(=O)C1(Nc1ccc(Cl)cn1)C(F)(F)F (configuration not stated) , report its measured cell count.
Found: 324

Lookup: Given the entry Fc1ccccc1C(c1nnnn1Cc1ccc2c(c1)OCO2)N1CCN(Cc2ccccc2)CC1 (configuration not stated) , report its measured cell count.
Found: 324

Lookup: Given the entry CC1=C(C(N)=O)C(c2cccnc2)n2nc(SCc3ccccc3Cl)nc2N1 (configuration not stated) , report its measured cell count.
Found: 533

Lookup: Given the entry NC(=O)c1cccc2c1C(=O)N(C1CCCCC1)C2 , report its measured cell count.
Found: 836

Lookup: Given the entry [N-]=[N+]=CC(=O)CC(c1ccccc1)N1C(=O)c2ccccc2C1=O (configuration not stated) , report its measured cell count.
Found: 229

Lookup: Given the entry Cn1c(SCC(=O)Nc2ccc3c(c2)oc2ccccc23)nnc1-c1ccccc1 , report its measured cell count.
Found: 403

Lookup: Given the entry Cc1nnc(SCc2cn3ccsc3n2)n(N)c1=O , report its measured cell count.
Found: 858

Lookup: Given the entry CC(C)N(Cc1nc(-c2ccc(Cl)cc2)no1)C(=O)CN(C)S(=O)(=O)c1ccc(Cl)cc1 , report its measured cell count.
Found: 629

Lookup: Given the entry O=C(CSc1nc2ccccc2s1)N1CCN(C(=O)c2ccco2)CC1 , report its measured cell count.
Found: 394

Lookup: Given the entry CCCCCn1c(CN2CCN(C(=O)OCC)CC2)nc2c1c(=O)[nH]c(=O)n2C , report its measured cell count.
Found: 245

Lookup: Given the entry Cc1occc1-c1nnc(SCC(=O)N2CCc3ccccc32)o1 , report its measured cell count.
Found: 679

----------
biological target: Voltage-gated potassium channel subunit beta-2 (Rattus norvegicus) (UniProt P62483); assay: inhibitors of rat Kvbeta2 reductase activity – biochemical, NADPH fluorescence, primary screen (AID 622); details: recombinant KvBeta, 4-cyanobenzaldehyde reduction, at 10 µM, stronger effect = higher value;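 also: slope of raw intensity against log time taken from 70 to 1610 s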
Sequence (P62483 whole entry, looked up): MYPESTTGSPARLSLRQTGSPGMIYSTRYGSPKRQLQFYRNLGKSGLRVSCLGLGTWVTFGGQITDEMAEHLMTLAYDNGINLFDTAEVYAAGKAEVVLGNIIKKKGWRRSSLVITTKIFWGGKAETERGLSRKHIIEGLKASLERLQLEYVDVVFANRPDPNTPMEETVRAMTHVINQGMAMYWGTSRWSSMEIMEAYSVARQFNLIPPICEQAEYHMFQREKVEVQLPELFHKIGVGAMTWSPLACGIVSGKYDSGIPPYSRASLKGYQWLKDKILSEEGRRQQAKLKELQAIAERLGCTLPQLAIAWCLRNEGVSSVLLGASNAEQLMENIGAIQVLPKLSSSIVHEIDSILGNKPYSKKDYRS
test.readout: fluorescence slope
// response body must contain only the number

Lookup: Given the entry CCCC(C)c1nnc(NC(=O)C2CCCO2)s1 (stereo not drawn) , report its measured fluorescence slope.
Found: -0.524

Lookup: Given the entry Cc1cc(NC(=O)c2cnn3c(C(F)F)cc(C4CC4)nc23)no1 , report its measured fluorescence slope.
Found: -0.486

Lookup: Given the entry Cn1c(=O)c(C(=O)Nc2cccnc2)c(O)c2ccccc21 , report its measured fluorescence slope.
Found: -0.479

Lookup: Given the entry N#Cc1nc(-c2ccco2)oc1NCCc1ccccc1 , report its measured fluorescence slope.
Found: -0.463

Lookup: Given the entry CCN(CC)C(=O)C1CCCc2c1[nH]c1ccc(Cl)cc21 (stereo not drawn) , report its measured fluorescence slope.
Found: -0.539

Lookup: Given the entry CC(C)c1nnc(NC(=O)c2cnccn2)s1 , report its measured fluorescence slope.
Found: -0.479

Lookup: Given the entry COc1cccc(NC(=O)NC2(C(F)(F)F)Oc3ccccc3O2)c1 , report its measured fluorescence slope.
Found: -0.476

Lookup: Given the entry CCOC(=O)C(C(C)=O)c1nc(C)nc2c1nnn2Cc1ccccc1Cl (stereo not drawn) , report its measured fluorescence slope.
Found: -0.356

Lookup: Given the entry COC(=O)c1cc(OC)c(OC)cc1NC(=O)CCC1CCCC1 , report its measured fluorescence slope.
Found: -0.637

Lookup: Given the entry Cn1c(=O)c2c(nc3sccn32)n(C)c1=O , report its measured fluorescence slope.
Found: -0.455

Lookup: Given the entry Cc1ccc(CCNC(=O)C2CCN(S(=O)(=O)c3c(C)nn(C)c3C)CC2)cc1 , report its measured fluorescence slope.
Found: -0.618

Lookup: Given the entry O=C(CCn1c(=S)[nH]c2cc3c(cc2c1=O)OCO3)N1CCN(C2CCCCC2)CC1 , report its measured fluorescence slope.
Found: -0.476

Lookup: Given the entry O=C(c1ccc(CNS(=O)(=O)c2cccc(C(F)(F)F)c2)cc1)N1CCOCC1 , report its measured fluorescence slope.
Found: -0.387

Lookup: Given the entry Cc1cccc(N2CCN(C(=O)CCn3c(=S)[nH]c4cc5c(cc4c3=O)OCO5)CC2C)c1 (stereo not drawn) , report its measured fluorescence slope.
Found: -0.614

Lookup: Given the entry COc1cccc(-c2cc(C(=O)NCc3ccc(Cl)cc3)no2)c1 , report its measured fluorescence slope.
Found: -0.474

Lookup: Given the entry COc1cc(CN(C)CC(=O)c2[nH]c(C)c(C(C)=O)c2C)ccc1OC(F)F , report its measured fluorescence slope.
Found: -0.616

Lookup: Given the entry CC1(C)Cc2cccc(OCC(=O)O)c2O1 , report its measured fluorescence slope.
Found: -0.423

Lookup: Given the entry COc1ccc(CCNC(=O)c2cnc3scc(C)n3c2=O)cc1OC , report its measured fluorescence slope.
Found: -0.411

Lookup: Given the entry Cc1ccc(-c2nc3cnccn3c2Nc2ccc3c(c2)OCO3)o1 , report its measured fluorescence slope.
Found: -0.483

Lookup: Given the entry O=C(Nc1ccc(Cl)c(C(F)(F)F)c1)N1CCCC(O)C1 (stereo not drawn) , report its measured fluorescence slope.
Found: -0.453

Lookup: Given the entry Cn1c(=O)cc(OCC(=O)NCCCN2CCN(c3cccc(Cl)c3)CC2)c2ccccc21 , report its measured fluorescence slope.
Found: -0.514

Lookup: Given the entry COc1ccc(OCCC(=O)NCc2ccccc2)cc1 , report its measured fluorescence slope.
Found: -0.509

Lookup: Given the entry Cc1nn(C)c(C)c1NC(=O)CCSc1nc(-c2ccco2)cc(C(F)(F)F)n1 , report its measured fluorescence slope.
Found: -0.432

The reported measurements were obtained from PubChem BioAssay.
